- Test system: young (348) and old (204) fibroblasts
- protocol_details: 10-day culture with compounds, cell survival measured by cell number counts
- Assay type: cell-based
value_kind: toxicity / effect on viability after prolonged culture (cell number)

Study these solved cases before continuing.
Oc1ccc(C=Cc2cc(O)cc(O)c2)cc1 [Resveratrol]; Toxicity was also seen
Nc1ncn([C@H]2C[C@H](O)[C@@H](CO)O2)c(=O)n1 [Decitabine, 5-aza-2-deoxycytidine]; Much less toxicity
CO[C@H]1C[C@@H]2CC[C@@H](C)[C@@](O)(O2)C(=O)C(=O)N2CCCC[C@H]2C(=O)O[C@H]([C@H](C)C[C@@H]2CC[C@@H](O)[C@H](OC)C2)CC(=O)[C@H](C)/C=C(\C)[C@@H](O)[C@@H](OC)C(=O)[C@H](C)C[C@H](C)/C=C/C=C/C=C/1C [Rapamycin]; Toxicity was also seen
O=[N+]([O-])c1cc(S(=O)(=O)Nc2ccc(O)c3ccccc23)ccc1Cl [SW155246]; Much less toxicity

Now take the following compound into account.
Q: Form field: toxicity / effect on viability after prolonged culture (cell number) recorded for O=c1ncccn1[C@@H]1O[C@H](CO)[C@@H](O)[C@H]1O [Zebularine, 1-(β-D-Ribofuranosyl)-2(1H)-pyrimidinone] with young (348) and old (204) fibroblasts (enter value)
Result: Much less toxicity
